Target: T1, hiR1-FL-WT-T7 (human, UniProt Q96CC6 1-855)
T1 construct: on MEF-DKO cells
T1 sequence: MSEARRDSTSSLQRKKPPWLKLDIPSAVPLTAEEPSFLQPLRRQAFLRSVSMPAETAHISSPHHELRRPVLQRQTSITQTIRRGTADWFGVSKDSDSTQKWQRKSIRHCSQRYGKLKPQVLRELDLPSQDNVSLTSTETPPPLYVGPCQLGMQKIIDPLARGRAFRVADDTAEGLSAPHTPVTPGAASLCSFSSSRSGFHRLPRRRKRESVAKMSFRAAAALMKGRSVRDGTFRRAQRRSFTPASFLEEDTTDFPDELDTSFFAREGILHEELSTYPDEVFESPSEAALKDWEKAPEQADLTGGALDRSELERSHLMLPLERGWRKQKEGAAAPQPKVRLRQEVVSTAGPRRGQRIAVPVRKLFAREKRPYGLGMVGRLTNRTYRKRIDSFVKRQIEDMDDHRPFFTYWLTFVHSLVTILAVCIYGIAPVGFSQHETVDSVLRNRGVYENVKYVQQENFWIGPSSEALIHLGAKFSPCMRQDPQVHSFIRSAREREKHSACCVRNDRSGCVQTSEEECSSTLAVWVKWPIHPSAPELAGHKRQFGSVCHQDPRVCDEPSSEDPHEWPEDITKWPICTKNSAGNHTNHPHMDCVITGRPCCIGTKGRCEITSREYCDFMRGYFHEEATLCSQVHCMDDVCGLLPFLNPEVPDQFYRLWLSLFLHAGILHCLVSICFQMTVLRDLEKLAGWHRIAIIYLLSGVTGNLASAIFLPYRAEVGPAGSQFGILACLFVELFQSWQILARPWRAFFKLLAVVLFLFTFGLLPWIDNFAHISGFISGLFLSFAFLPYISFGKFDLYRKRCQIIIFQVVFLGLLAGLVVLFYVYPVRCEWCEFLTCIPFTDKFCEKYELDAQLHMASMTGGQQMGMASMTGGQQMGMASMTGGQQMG
Assay: FACS, MEF-DKO cells, 3 µg/ml
loss of binding vs wild type values for the binders below.

Example binders with recorded loss of binding vs wild type:
# loss of binding vs wild type (binder: antibody 42 (antibody, V domains shown, mouse IgG, kappa light chain; also called clone #42; purified antibody 42) VH: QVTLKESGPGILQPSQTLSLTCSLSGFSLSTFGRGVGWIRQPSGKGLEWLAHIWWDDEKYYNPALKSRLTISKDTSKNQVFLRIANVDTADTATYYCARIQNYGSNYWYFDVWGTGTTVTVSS VL: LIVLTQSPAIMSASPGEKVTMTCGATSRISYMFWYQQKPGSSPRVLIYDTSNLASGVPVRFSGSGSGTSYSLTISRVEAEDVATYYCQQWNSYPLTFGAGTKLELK ) is ≥ 95%

# loss of binding vs wild type (binder: antibody 22 (antibody, V domains shown, mouse IgG, kappa light chain; also called clone #22; purified antibody 22) VH: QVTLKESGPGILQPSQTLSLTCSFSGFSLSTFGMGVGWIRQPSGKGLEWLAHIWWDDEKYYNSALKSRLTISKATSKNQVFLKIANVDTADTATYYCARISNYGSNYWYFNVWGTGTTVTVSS VL: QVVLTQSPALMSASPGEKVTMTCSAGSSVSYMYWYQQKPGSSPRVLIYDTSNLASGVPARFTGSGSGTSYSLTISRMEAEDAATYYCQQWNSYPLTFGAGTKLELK ) is ≥ 95%

# evaluate next
# loss of binding vs wild type (binder: antibody 48 (antibody, V domains shown, mouse IgG, kappa light chain; also called clone #48; purified antibody 48) VH: QVQLQQSGTELVRPGTSVKVSCKASGYAFTNYLIEWVKQRPGQGLEWIGVINPGSGFTKYNEKFKGKATLTADKSSSTVYMHLSSLTSEDSAVYFCARGLYRAMDYWGQGTSVTVSS VL: DIQMTQSPASQSASLGESVTITCLASQTIATWLAWYQQKPGKSPQLLIYGATTLADGVPSRFSGGGSGTKFSFKISSLQAEDFVSYYCQQLYSTPYTFGGGTKLEIK ) is ≥ 60%
